Measured log10(GI50), listed per entry for reference.
target: BaF3 (EGFR-D770insSVD) (Homo sapiens, UniProt P00533, DUP768-770, cells depend on it)
Sequence (P00533 with tags, fused parts or gaps DUP768-770): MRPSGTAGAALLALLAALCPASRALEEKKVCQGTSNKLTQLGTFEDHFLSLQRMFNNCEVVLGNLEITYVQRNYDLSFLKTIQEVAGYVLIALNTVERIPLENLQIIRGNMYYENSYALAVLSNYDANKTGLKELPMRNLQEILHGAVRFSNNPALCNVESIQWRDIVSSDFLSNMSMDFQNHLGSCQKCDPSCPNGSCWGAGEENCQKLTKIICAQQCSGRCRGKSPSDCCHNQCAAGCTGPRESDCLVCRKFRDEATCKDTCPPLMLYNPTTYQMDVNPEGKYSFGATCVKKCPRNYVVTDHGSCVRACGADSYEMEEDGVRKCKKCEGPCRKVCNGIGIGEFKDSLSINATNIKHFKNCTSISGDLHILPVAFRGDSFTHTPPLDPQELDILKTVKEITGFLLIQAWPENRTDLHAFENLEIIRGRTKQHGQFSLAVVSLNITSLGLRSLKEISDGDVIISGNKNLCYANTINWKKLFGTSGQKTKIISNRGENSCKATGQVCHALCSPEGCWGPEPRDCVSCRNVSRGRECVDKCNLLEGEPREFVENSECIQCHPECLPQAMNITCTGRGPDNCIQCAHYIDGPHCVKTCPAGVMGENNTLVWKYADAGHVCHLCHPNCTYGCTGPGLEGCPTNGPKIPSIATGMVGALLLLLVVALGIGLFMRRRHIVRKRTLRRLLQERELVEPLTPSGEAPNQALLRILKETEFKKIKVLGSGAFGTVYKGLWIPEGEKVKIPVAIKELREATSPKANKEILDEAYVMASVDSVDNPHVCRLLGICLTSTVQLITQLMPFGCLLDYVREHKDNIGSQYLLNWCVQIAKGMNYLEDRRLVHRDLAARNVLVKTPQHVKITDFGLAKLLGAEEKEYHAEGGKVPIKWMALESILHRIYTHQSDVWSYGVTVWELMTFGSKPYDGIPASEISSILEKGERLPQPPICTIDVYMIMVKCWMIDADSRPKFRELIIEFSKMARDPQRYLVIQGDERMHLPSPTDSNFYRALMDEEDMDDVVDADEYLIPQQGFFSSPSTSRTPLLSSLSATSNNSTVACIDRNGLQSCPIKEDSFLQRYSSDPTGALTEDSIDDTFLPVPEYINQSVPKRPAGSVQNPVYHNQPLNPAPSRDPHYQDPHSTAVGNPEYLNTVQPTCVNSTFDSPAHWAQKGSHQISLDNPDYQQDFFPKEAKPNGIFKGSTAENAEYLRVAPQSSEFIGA
measurement.protocol: Test 2: BaF3 (EGFR-D770insSVD) cell proliferation test
Assay type: cell-based
assay.context: 72 hours, Cell Titer-Glo, read-out: Test 2 - IC50
Could you please treat all values as log10 of GI50 in µM?

Illustrative cases are given below, each with its answer.
C=CC(=O)Nc1cc(Nc2ncnc(Oc3ccc(Cl)c(OC)c3)n2)c(OC)cc1N(C)CCN(C)C	-0.74
C=CC(=O)Nc1cc(Nc2ncnc(-n3ccc4cnccc43)n2)c(OC)cc1N1CC[C@@H]1CN(C)C	-0.39
C=CC(=O)Nc1cc(Nc2ncnc(Oc3ccc(Cl)c(OC)c3)n2)c(OC(F)F)cc1N(C)CCN(C)C	-1.05
C=CC(=O)Nc1cc(Nc2ncnc(-c3cn(C)c4ccc(OC)cc34)n2)c(OC)cc1N(C)CCN(C)C	-1.52

Next:
(Q) Give reported log10(GI50) value for "C=CC(=O)Nc1cc(Nc2nccc(-c3cnc4c(I)cccn34)n2)c(OC)cc1N(C)CCN(C)C"
(A) -0.23
